# Test system: NCI-H460 lung
# experimental.protocol: NCI-60 one-dose screen, 48 h (100 = growth as untreated, 0 = no growth, -100 = all killed)
# condition.summary: 10 µM unless noted
About 83,000 compounds went through this panel and 20% of them were active in at least one assay; those are over-represented in the sample as a whole.
Cut-off 40% on growth: below means Yes, at or above means No.

| compound | assigned.label |
| --- | --- |
| O=C(Nc1ccccc1)Nc1ccc(Nc2ncnc3sc4c(c23)CCCC4)cc1 | No |

Next item in the queue.
In plain terms, does NC(CSC(c1ccccc1)(c1ccccc1)c1ccccc1)C(=O)NCC(=O)O (centres undefined) come in under 40% for growth? No

---

# Tested on: DU-145 prostate
# experimental.protocol: NCI-60 one-dose screen, 48 h (100 = growth as untreated, 0 = no growth, -100 = all killed)
# condition.summary: 10 µM unless noted
About 83,000 compounds went through this panel and 20% of them were active in at least one assay; those are over-represented in the sample as a whole. Activity calls are given as the source filed them. Rule for the calls: active = growth percent below 10; inactive = the rest.
Can you tell me growth for the items I'm about to list?

The following molecules have reported results that may help.
| smiles.input | value.observed |
| --- | --- |
| O=C(Oc1ccccc1)c1ccccc1Cl | 114% (inactive) |
| CCCCCCC(C(=O)OCC)(C(=O)OCC)C1CCCCCC1 | 120% (inactive) |
| N#CCc1ncc(-c2ccc(C(F)(F)F)cc2)c(NC2CCCCCC2)n1 | 28.5% [100 µM] (inactive) |
| COC(=O)c1ccc2[nH]c(O)c(C(=Nc3ccc(N(C)C(=O)CN4CCN(C)CC4)cc3)c3ccc(OC)cc3)c2c1 | 21.1% (inactive) |
| CCCCCCCCc1ccc(CCC(N)(CO)CO)cc1 | 3.12% (active) |
| C/C(=N\Nc1ccc(Cl)cn1)c1ccccn1 | 18.2% (inactive) |
| Cc1nc(NC(=S)Nc2ccc(F)cc2)sc1C(=O)NNC(=S)Nc1ccc(F)cc1 | 82% (inactive) |
| COc1cc2oc(-c3ccc(NC(=O)c4ccccc4)cc3)cc(=O)c2c(OC)c1OC | 82.3% (inactive) |
| CC#Cc1nc(Nc2cc(C)[nH]n2)c2ccccc2n1 | -4.22% [100 µM] (active) |
| O=C(CCl)c1ccc2c(c1)CCCC2 | 110% (inactive) |

Quick batch: growth for everything below.
1. O=C(Nc1cccc(Cn2c(=O)[nH]c3ccc(Oc4ncccn4)cc3c2=O)c1)c1cccc(F)c1
2. COc1cc2c(/C=C3\C(=O)Nc4ccc(Br)cc43)c(Cl)n(C)c2cc1C

1. 80.1% (inactive)
2. 17.5% (inactive)

Quick batch: growth for everything below.
1. COc1ccc(Oc2[nH]n(C3=Nc4ccccc4Sc4ccccc43)c(=O)c2C#N)cc1
2. COCn1c(C(=O)OC)cc2oc(/C=C3/SC(=S)N(N)C3=O)cc21
3. O=c1oc2ccc3ccccc3c2cc1-c1ccnc2[nH]c(=S)[nH]c(=O)c12

1: 104% (inactive); 2: 94.1% (inactive); 3: 106% (inactive)

Quick batch: growth for everything below.
1. NC(=O)c1c(Nc2ccccc2)nn2cc(-c3nc4ccccc4s3)c(N)nc12
2. O=C1/C(=C/c2ccc(Cl)cc2)CCC/C1=C\c1ccc(Cl)cc1
3. CCc1ccc(C(=Nc2ccc(N(C)C(=O)CN3CCN(C)CC3)cc2)c2c(O)[nH]c3ccc(C(=O)OC)cc23)cc1
4. C[C@]12CC[C@H]3[C@@H](CC[C@H]4C[C@@H](O)CC[C@@]43C)[C@@H]1CC(=O)C2

1. 107% (inactive)
2. 91.7% (inactive)
3. -11.5% (active)
4. 107% (inactive)

Quick batch: growth for everything below.
1. COc1cc2cn3c4ccc(O)cc4[nH]c(=O)c3c2cc1OC
2. COc1ccc(C(=O)CN2C(=O)NC(c3ccccc3)(c3ccccc3)C2=O)cc1

["3.02% (active)", "116% (inactive)"]
